Tested on: HUVEC cells
Assay: CCK-8 cell viability: alleviation of proliferative toxicity of anti-tumor agents on HUVEC cells (Tables 7-1, 7-2)
Type: cell-based
Conditions: Homo sapiens, 24 h, Dabrafenib (10 μM), NO-NSAID 100 μM, percentage increase in viable cells vs anti-tumor agent alone, read-out: Response rate % (average)
Parameter: activation at 100 µM. Scope: all listed entries.
Express your answer as a number followed by its unit.

molecule | activation at 100 µM
CC(C(=O)OCC(CO[N+](=O)[O-])O[N+](=O)[O-])c1ccc(-c2ccccc2)c(F)c1 (centres unmarked) [Compound A10] | 42%
CC(C(=O)OCCCO[N+](=O)[O-])c1ccc(-c2ccccc2)c(F)c1 (centres unmarked) [Compound A1] | 53%
CC(=O)Oc1ccccc1C(=O)OCOC(=O)CCCCCO[N+](=O)[O-] [Compound A3] | 64%
CC(C)Cc1ccc(C(C)C(=O)OCO/N=[N+](\[O-])N(C)C)cc1 (centres unmarked) [Compound A4] | 33%
COc1ccc2cc(C(C)C(=O)OCC(CO[N+](=O)O)C[N+](=O)[O-])ccc2c1 (centres unmarked) [Compound A9] | 35%

Recorded activation at 100 µM of COc1ccc2cc(C(C)C(=O)OCCCCO[N+](=O)[O-])ccc2c1 (centres unmarked) [Compound A5] , please.
65%

Any idea what its activation at 100 µM is? The molecule is CC(=O)Oc1ccccc1C(=O)Oc1cccc(CO[N+](=O)[O-])c1 [Compound A2]
49%

Name the recorded activation at 100 µM for CC(=O)Oc1ccccc1C(=O)OCc1no[n+]([O-])c1C(N)=O [Compound A6] .
21%

# credit: patent US20250170090A1
